- Substrate: NP of B/Brisbane/60/2008(fluB) (influenza B virus B/Brisbane/60/2008)
- experimental-details: ELISA on virus-infected fixed MDCK cells
pEC50: −log10 of the molar value.
# maps each entry to its pEC50
value-kind: pEC50

[
  {
    "binder": "NP25 (antibody, V domains shown) VH: EVQLVESGGGLVQPGGSLRLSCAASGFTIGGGFIHWVRQAPGKGLEWVASIWPYWGFTYYADSVKGRFTISADTSKNTAYLQMNSLRAEDTAVYYCARGSYGYSDYWGQGTLVTVSS VL: DIQMTQSPSSLSASVGDRVTITCRAGQDVSSGVAWYQQKPGKAPKLLISWTSFLYSGVPSRFSGSGSGTDFTLTISSLQPEDFATYYCQQYYDYPITFGQGTKVEIKR",
    "value-kind": "pEC50",
    "numeric-readout": 8.66
  },
  {
    "binder": "NP24 (antibody, V domains shown) VH: EVQLVESGGGLVQPGGSLRLSCAASGFTIDDWYIHWVRQAPGKGLEWVAGIGPYGGFTYYADSVKGRFTISADTSKNTAYLQMNSLRAEDTAVYYCARGYYGSFDYWGQGTLVTVSS VL: DIQMTQSPSSLSASVGDRVTITCRASQDVGSSVAWYQQKPGKAPKLLIFYTSSLYSGVPSRFSGSGSGTDFTLTISSLQPEDFATYYCQQGWDSPVTFGQGTKVEIKR",
    "value-kind": "pEC50",
    "numeric-readout": 8.50
  },
  {
    "binder": "NP20 (antibody, V domains shown) VH: EVQLVESGGGLVQPGGSLRLSCAASGFTINGYSIHWVRQAPGKGLEWVASIGPYGGFTYYADSVKGRFTISADTSKNTAYLQMNSLRAEDTAVYYCAGFGFYYWGQGTLVTVSS VL: DIQMTQSPSSLSASVGDRVTITCRASQDVGYGVAWYQQKPGKAPKLLISGASGLYSGVPSRFSGSGSGTDFTLTISSLQPEDFATYYCQQYSSFPLTFGQGTKVEIKR",
    "value-kind": "pEC50",
    "numeric-readout": 8.31
  },
  {
    "binder": "NP22 (antibody, V domains shown) VH: EVQLVESGGGLVQPGGSLRLSCAASGFTISDWSIHWVRQAPGKGLEWVAGIWPYWGSTSYADSVKGRFTISADTSKNTAYLQMNSLRAEDTAVYYCARGFYSWFDYWGQGTLVTVSS VL: DIQMTQSPSSLSASVGDRVTITCRASQDVFSWVAWYQQKPGKAPKLLISSASSLYSGVPSRFSGSGSGTDFTLTISSLQPEDFATYYCQQSWDYPITFGQGTKVEIKR",
    "value-kind": "pEC50",
    "numeric-readout": 8.41
  },
  {
    "binder": "NP2 (antibody, V domains shown) VH: EVQLVESGGGLVQPGGSLRLSCAASGFTIGGGGIHWVRQAPGKGLEWVAGIWPYWGYTFYADSVKGRFTISADTSKNTAYLQMNSLRAEDTAVYYCARFWHGNLDVMDYWGQGTLVTVSS VL: DIQMTQSPSSLSASVGDRVTITCRASQDVYGYVAWYQQKPGKAPKLLIYGAAGLYSGVPSRFSGSGSGTDFTLTISSLQPEDFATYYCQQYSNFPLTFGQGTKVEIKR",
    "value-kind": "pEC50",
    "numeric-readout": 8.31
  }
]
